target: T1, recombinant human IL-6 (human, UniProt P05231 30-212, labeled with radioactive iodine); experiment: radioiodinated IL-6 on peptide array
T1 construct: Labeled probe in solution, added to wells that carry the synthetic peptides; also called IL-6 ligand; Interleukin-6
Catalogue of Counts/minute bound readings, one per entry.

binder	Counts/minute bound, counts/minute
KDGPEFTFTTPKFAQGEIEAIVVP [Peptide E61]	1390
ISGLPPEKPKNLSCIVNEGKKMRC [Peptide E13]	1200
FNKRDLIKKHIWPNVPDPSKSHIA [Peptide E65]	5740
TEGQVERFETVGMEAATDEGMPKS [Peptide E89]	1130
